biological target: T1, MAGI1-2/6 (MBP fusion of the second of the six PDZ domains of MAGI1) (mouse, UniProt Q6RHR9-1 448-572); assay: SPR; settings: both partners purified
T1 construct: source: E. coli BL21 DE3, purified (amylose column, Superdex 75 gel filtration)
T1 sequence (Q6RHR9 448-572): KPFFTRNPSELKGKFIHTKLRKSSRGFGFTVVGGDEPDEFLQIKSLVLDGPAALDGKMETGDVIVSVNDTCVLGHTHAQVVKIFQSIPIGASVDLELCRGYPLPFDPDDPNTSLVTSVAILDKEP
Ends that are not written are not given here. * marks the point of attachment. Biotin = O=C1N[C@H]2[C@H](CS[C@H]2CCCCC(=O)*)N1
recorded_endpoint: pKd
Scale for pKd: -log10 of concentration given in mol/L; no unit attached.

Documented pKd of Biotin-SEKHFRETEV (also called TAX1 long; HTLV1 Tax1; source: synthetic peptide (JPT Peptide Technologies)) : 4.28

Please fill in: pKd reported for Biotin-PKRSFIESNV (also called TANC1 long; source: synthetic peptide (JPT Peptide Technologies)) = 3.54
